Entries and their pEC50
EXPERIMENTAL TARGET: MK2 (Homo sapiens (Human), UniProt P49137)
PROCEDURE DETAILS: MK2 cellular assay (Hsp27 phosphorylation in Thp-1 cells)
CONDITION DESCRIPTION: differentiated Thp-1 cells, compound 1 hour, 50 ng/ml LPS 15 minutes, phosphorylation of Hsp27; read-out: MK2EC50
Method: Compounds were assayed in Thp-1 human acute monocytic leukemia cells to measure inhibition of MK2 activity. Thp-1 were grown in suspension in T225 flasks. Two days prior to assay, Thp-1 cells were spun down, counted and plated at 1×10^6 cells per well of a 12 well plate in complete media containing 10 ng/ml PMA (phorbol myristate acetate) to differentiate the cells. On day of assay, cells were washed with complete media, and compound was added to differentiated Thp-1 cells for 1 hour. […]
pEC50: −log10 of the molar value.

{"MOLECULE": "C=CC(=O)N1CC(C)(C)Oc2ccc(NC(=O)c3ccc4cc5n(c4c3)C3(CCC3)CNC5=O)cc21 [Compound V-51]", "pEC50": "6.30 to 7.00"}
{"MOLECULE": "C=CC(=O)Nc1cccc2[nH]c(-c3ccc4cc5n(c4c3)C3(CCC3)CNC5=O)nc12 [Compound V-63]", "pEC50": "> 7.00"}
{"MOLECULE": "C=CC(=O)Nc1cc(NC(=O)c2ccc3sc4c(c3c2)NC[C@@H](C)NC4=O)ccc1OCCN(C)C [III-35]", "pEC50": "6.30 to 7.00"}
{"MOLECULE": "C=CC(=O)Nc1cc(-c2cc3c(ccc4c5c([nH]c43)CCC5=O)cn2)ccc1N1CCN(C)CC1 [II-e-4]", "pEC50": "> 7.00"}
{"MOLECULE": "C=CC(=O)Nc1ccccc1NC(=O)c1ccc2sc3c(c2c1)NC[C@@H](C)NC3=O [III-10]", "pEC50": "< 6.00"}
{"MOLECULE": "C=CC(=O)Nc1cc(-c2cc3c(cn2)CCc2c-3[nH]c3c2C(=O)NCC3)cnc1N1CCN(C)CC1 [II-26]", "pEC50": "6.30 to 7.00"}

Attention now shifts to the item below.
Exercise: Identify measured pEC50 obtained with MK2 (Homo sapiens (Human), UniProt P49137) for C=CC(=O)N1CCC[C@@H](NC(=O)c2ccc3sc4c(c3c2)NC[C@@H](C)NC4=O)C1 [III-42] .
Key: < 6.00

====

Entries and their pIC50
EXPERIMENTAL TARGET: p38a activated, mitogen-activated protein kinase-activated protein kinase 2 (MAPKAP-K2 or MK-2) enzyme (Homo sapiens (Human))
Sequence (P49137 whole entry): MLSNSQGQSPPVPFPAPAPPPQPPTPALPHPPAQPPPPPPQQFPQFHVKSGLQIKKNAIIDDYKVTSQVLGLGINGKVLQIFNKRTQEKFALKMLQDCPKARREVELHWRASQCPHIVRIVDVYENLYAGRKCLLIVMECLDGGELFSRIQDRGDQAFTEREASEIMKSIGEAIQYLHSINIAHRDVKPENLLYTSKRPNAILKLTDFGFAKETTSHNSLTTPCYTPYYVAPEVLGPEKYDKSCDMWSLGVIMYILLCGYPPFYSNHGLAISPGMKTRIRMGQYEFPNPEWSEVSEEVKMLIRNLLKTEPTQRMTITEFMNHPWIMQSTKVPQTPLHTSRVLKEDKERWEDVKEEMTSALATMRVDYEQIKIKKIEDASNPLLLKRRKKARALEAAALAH
PROCEDURE DETAILS: MK2 Omnia continuous-read kinase assay for compound potency
CONDITION DESCRIPTION: [MK-2]=0.4 nM, [ATP]=1.0 mM, [ST3-Sox]=10 μM
pIC50: −log10 of the molar value.

{"SMILES STRUCTURE": "C=CC(=O)Nc1cc(-c2cc3c(cn2)CCc2c-3[nH]c3c2C(=O)NCC3)ccc1OCCCNC(=O)CCCC(=O)NCCCOCCOCCOCCCNC(=O)CCCC[C@H]1SC[C@H]2NC(=O)N[C@H]21", "pIC50": "> 7.00"}
{"SMILES STRUCTURE": "C=CC(=O)Nc1cc(-c2cc3c(cn2)CCc2c-3[nH]c3c2C(=O)NCC3)ccc1OCCCN", "pIC50": "> 7.00"}
{"SMILES STRUCTURE": "C=CC(=O)Nc1cc(C2CCN(C)CC2)cc2oc(-c3ccc4cc5n(c4c3)C3(CCC3)CNC5=O)nc12", "pIC50": "> 7.00"}
{"SMILES STRUCTURE": "C=CC(=O)N1CCC[C@@H](NC(=O)c2ccc3cc4n(c3c2)CCNC4=O)C1", "pIC50": "< 6.00"}

Exercise: For the molecule "C=CC(=O)Nc1cc(-c2ccc3c(ccc4sc5c(c43)NC[C@@H](C)NC5=O)n2)ccc1OCCN(C)C" , report pIC50.
Key: > 7.00

Exercise: For the molecule "C=CC(=O)Nc1cccc2oc(-c3ccc4cc5n(c4c3)CCNC5=O)nc12" , report pIC50.
Key: 6.00 to 6.30

Exercise: For the molecule "C=CC(=O)Nc1cc(-c2nccc(-c3cc4c([nH]3)CCNC4=O)n2)cnc1OCCOC" , report pIC50.
Key: > 7.00

Measured values drawn from patent US11098061B2 for this set.
